Target: UniProtKB Q9NYJ7
Sequence (Q9NYJ7 27-618): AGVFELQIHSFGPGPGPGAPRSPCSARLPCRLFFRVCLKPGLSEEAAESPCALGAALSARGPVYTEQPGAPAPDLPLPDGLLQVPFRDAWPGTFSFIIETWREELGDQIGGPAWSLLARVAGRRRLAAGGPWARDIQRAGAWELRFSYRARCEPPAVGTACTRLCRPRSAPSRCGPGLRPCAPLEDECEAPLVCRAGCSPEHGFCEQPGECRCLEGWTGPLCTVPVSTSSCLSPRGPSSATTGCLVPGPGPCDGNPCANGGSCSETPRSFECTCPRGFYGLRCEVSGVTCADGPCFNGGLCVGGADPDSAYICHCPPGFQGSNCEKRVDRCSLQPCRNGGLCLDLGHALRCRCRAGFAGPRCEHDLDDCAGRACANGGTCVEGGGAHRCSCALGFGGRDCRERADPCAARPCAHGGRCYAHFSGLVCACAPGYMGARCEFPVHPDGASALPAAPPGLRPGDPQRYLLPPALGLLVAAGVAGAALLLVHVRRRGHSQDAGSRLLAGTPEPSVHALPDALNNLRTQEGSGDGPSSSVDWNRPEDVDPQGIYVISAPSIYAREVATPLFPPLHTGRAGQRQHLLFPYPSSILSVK
Assay: SPR KD, biotinylated human DLL3 on streptavidin chip (Table 8)
Set-up: biotin (biotinylated)
Conditions: biotinylated human DLL3 on streptavidin sensor chip, 25° C., 1:1 binding model; read-out: SPR KD
Where a SMILES comes first, the peptide text is derived from it. Bridges are numbered along the chain shown (N, C = ends). [ ]: non-standard residue; d: D form. Trp(7-aza) = N[C@@H](Cc1c[nH]c2ncccc12)C(=O)O; Nva(3-Et) = CCC(CC)[C@H](N)C(=O)O; Dab = NCC[C@H](N)C(=O)O
Reported Kd values for a set of molecules

Known results for molecules:
- Molecule: "CC[C@H](C)[C@H](NC(=O)[C@@H](NC(=O)[C@H](Cc1c[nH]c2ccccc12)NC(=O)[C@H](CCSC)NC(C)=O)[C@@H](C)O)C(=O)N[C@H]1CSSC[C@@H](C(=O)N[C@@H](Cc2c[nH]c3ccccc23)C(=O)N2CCC[C@H]2C(N)=O)NC(=O)[C@H](CC(=O)O)NC(=O)[C@H](Cc2cnc[nH]2)NC(=O)[C@H](Cc2c[nH]c3ccccc23)NC(=O)[C@H](CC(N)=O)NC(=O)[C@H](C)NC1=O [compound 15] (Ac-MWTICANWHDCWP-NH2; disulfide 5-11)"
  Tested target: "UniProtKB Q9NYJ7"
  Kd: "1 to 10 nM"
- Molecule: "CC[C@@H](C)[C@@H](NC(=O)[C@H](NC(=O)[C@@H](Cc1c[nH]c2ccccc12)NC(C)=O)[C@H](C)O)C(=O)N[C@H]1CC(=O)NCC[C@@H](C(=O)N[C@@H](Cc2c[nH]c3ccccc23)C(=O)N2CCC[C@H]2C(N)=O)NC(=O)[C@H](CC(=O)O)NC(=O)[C@H](Cc2c[nH]cn2)NC(=O)[C@H](Cc2c[nH]c3ccccc23)NC(=O)[C@H](CC(N)=O)NC(=O)[C@H](CC(N)=O)NC1=O [compound 95] (Ac-[dW][dT][dI]DNNWHD[Dab]WP-NH2; lactam 4-10)"
  Tested target: "UniProtKB Q9NYJ7"
  Kd: "100 to 300 nM"

Prompt: Bench note: what Kd did CCC(CC)[C@H](NC(=O)[C@@H](NC(=O)[C@H](Cc1c[nH]c2ccccc12)NC(C)=O)[C@@H](C)O)C(=O)N[C@H]1CSSC[C@@H](C(=O)N[C@@H](Cc2c[nH]c3ccccc23)C(=O)N2CCC[C@H]2C(N)=O)NC(=O)[C@H](CC(=O)O)NC(=O)[C@H](Cc2cnc[nH]2)NC(=O)[C@H](Cc2c[nH]c3ccccc23)NC(=O)[C@H](CC(N)=O)NC(=O)[C@H](CC(N)=O)NC1=O [compound 337] (Ac-WT[Nva(3-Et)]CNNWHDCWP-NH2; disulfide 4-10) show?
Completion: 1 to 10 nM

Prompt: # input molecule: CC[C@H](C)[C@H](NC(=O)[C@@H](NC(=O)[C@H](Cc1c[nH]c2ncccc12)NC(C)=O)[C@@H](C)O)C(=O)N[C@H]1CSSC[C@@H](C(=O)N[C@@H](Cc2c[nH]c3ccccc23)C(=O)N2CCC[C@H]2C(N)=O)NC(=O)[C@H](CC(=O)O)NC(=O)[C@H](Cc2cnc[nH]2)NC(=O)[C@H](Cc2c[nH]c3ccccc23)NC(=O)[C@H](CC(N)=O)NC(=O)[C@H](CC(N)=O)NC1=O [compound 24] (Ac-[Trp(7-aza)]TICNNWHDCWP-NH2; disulfide 4-10) ; wanted: its Kd
Completion: 10 to 100 nM

Prompt: Look up Kd for this molecule: CC[C@H](C)[C@H](NC(=O)[C@@H](NC(=O)[C@H](Cc1c[nH]c2ccccc12)NC(=O)[C@H](CCSC)NC(C)=O)[C@@H](C)O)C(=O)N[C@H]1CSSC[C@@H](C(=O)N[C@@H](Cc2c[nH]c3ccccc23)C(=O)N2CCC[C@H]2C(N)=O)NC(=O)[C@H](CC(=O)O)NC(=O)[C@H](Cc2cnc[nH]2)NC(=O)[C@H](Cc2c[nH]c3ccccc23)NC(=O)[C@H](CC(N)=O)NC(=O)[C@H](CC(N)=O)NC1=O [compound 1] (Ac-MWTICNNWHDCWP-NH2; disulfide 5-11)
Completion: 1 to 10 nM

----------
Molecular target: DLL3 (Homo sapiens)
Sequence (Q9NYJ7 27-618): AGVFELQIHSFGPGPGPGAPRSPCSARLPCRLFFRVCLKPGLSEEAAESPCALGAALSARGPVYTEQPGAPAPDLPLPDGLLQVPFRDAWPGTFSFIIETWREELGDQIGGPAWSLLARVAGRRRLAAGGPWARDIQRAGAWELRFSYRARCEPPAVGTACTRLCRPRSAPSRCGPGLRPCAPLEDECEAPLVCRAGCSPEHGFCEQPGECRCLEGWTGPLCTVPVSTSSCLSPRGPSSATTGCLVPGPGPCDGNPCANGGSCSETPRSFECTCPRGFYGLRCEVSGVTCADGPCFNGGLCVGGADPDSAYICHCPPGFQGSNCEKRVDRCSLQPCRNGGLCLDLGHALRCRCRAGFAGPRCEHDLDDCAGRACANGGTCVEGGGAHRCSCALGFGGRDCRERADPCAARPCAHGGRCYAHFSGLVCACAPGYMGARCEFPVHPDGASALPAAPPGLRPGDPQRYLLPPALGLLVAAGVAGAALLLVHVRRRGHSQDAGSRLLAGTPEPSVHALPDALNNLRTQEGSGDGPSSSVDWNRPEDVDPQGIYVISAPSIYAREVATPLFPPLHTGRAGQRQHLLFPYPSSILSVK
Experiment: SPR KD, biotinylated human DLL3 on streptavidin chip (Table 8)
Design: biotin (biotinylated)
Conditions: biotinylated human DLL3 on streptavidin sensor chip, 25° C., 1:1 binding model; read-out: SPR KD
pKd: −log10 of the molar value. Where a SMILES comes first, the peptide text is derived from it. Bridges are numbered along the chain shown (N, C = ends). [ ]: non-standard residue; d: D form. Trp(5-OH) = N[C@@H](Cc1c[nH]c2ccc(O)cc12)C(=O)O
Experimental readout: pKd

Prompt: Report pKd for CC[C@H](C)[C@H](NC(=O)[C@@H](NC(=O)[C@H](Cc1c[nH]c2ccc(O)cc12)NC(C)=O)[C@@H](C)O)C(=O)N[C@H]1CSSC[C@@H](C(=O)N[C@@H](Cc2c[nH]c3ccccc23)C(=O)N2CCC[C@H]2C(N)=O)NC(=O)[C@H](CC(=O)O)NC(=O)[C@H](Cc2c[nH]cn2)NC(=O)[C@H](Cc2c[nH]c3ccccc23)NC(=O)[C@H](CC(N)=O)NC(=O)[C@H](CC(N)=O)NC1=O [compound 27] (Ac-[Trp(5-OH)]TICNNWHDCWP-NH2; disulfide 4-10) please.
Completion: 7.00 to 8.00
